Target: T1, CD81 (UniProt P60033 1-236, limits assumed)
T1 construct: whole, on cells; also called CD81 receptor
T1 sequence (looked up): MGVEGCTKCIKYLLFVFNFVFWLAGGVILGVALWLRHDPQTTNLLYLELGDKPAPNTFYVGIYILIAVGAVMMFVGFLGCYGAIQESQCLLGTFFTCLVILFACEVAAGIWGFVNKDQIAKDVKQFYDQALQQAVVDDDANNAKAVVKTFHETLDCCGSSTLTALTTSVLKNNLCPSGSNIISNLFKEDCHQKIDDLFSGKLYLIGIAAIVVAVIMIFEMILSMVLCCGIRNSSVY
Assay: cell ELISA;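 also: antibody binding to HuH7 cells expressing CD81 versus a CD81-negative HuH7 control line, bound antibody detected by secondary reagent, absorbance at 450 nm with 620 nm reference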
endpointName: ELISA data
# answer = number (no unit)

1. CD81K04 HC GG-01-hVH_5_51 / LC GG-05-hVK_3_11 (antibody, V domains shown, human constant region) VH: EVQLVQSGAEVKKPGESLKISCKGSGYSFSSSWMNWVRQMPGKGLEWMGRIYSGDGDAIYSPSFQGQVTISADKSISTAYLQLSSLKASDTAMYYCAREGKTGDLLLRSWGQGTLVTVSS VL: EIVLTQSPATLSLSPGERATLSCRASKSVSTSIYSYLHWYQQKPGQAPRLLIYYASNRETGIPARFSGSGSGTDFTLTISSLEPEDFAVYYCQHSREFPFTFGQGTKLEIK = 0.073

Next, consider the following binder.
Q) Quick one: ELISA data of CD81K04 HC JA_GG-15-hVH_1_3 / LC GG-06-hVK_1_39 (antibody, V domains shown, human constant region) VH: QVQLVQSGAEVKKPGASVKVSCKASGYTFSSSWMNWVRQAPGQRLEWMGRIYSGDGDAIYNGKFKGRVTITADTSASTAYMELSSLRSEDTAVYYCAREGKTGDLLLRSWGQGTLVTVSS VL: DIQMTQSPSSLSASVGDRVTITCRASKSVSTSIYSYLNWYQQKPGKAPKLLIYYASYLQSGVPSRFSGSGSGTDFTLTISSLQPEDFATYYCQHSREFPYTFGQGTKLEIK ?
A) 0.079
